- target_under_test: T1, human PD-1 protein (human, UniProt Q15116 25-167, limits assumed)
- T1 construct: also called human PD-1 antigen
- assay_summary: SPR; ratio against the U299-WT parent
experimental_endpoint: Ratio (kd)
Hey, just send me the number, nothing else.

The following binders have reported results that may help.
AHF16557 (antibody, V domains shown) VH: QVQLVQSGAEVKKPGASVKVSCKASGYTFTGYWMHWVRQAPGQGLEWIGMIHPNSDTTVYNWKFKNRVTMTRDTSISTAYMELSRLRSDDTAVYYCAGTDQAAWAGFWGQGTTVTVSS VL: DIVMTQTPLSLSVTPGQPASISCRSSQNIVHSQGDTYLEWYLQKPGQSPQLLIYKVSKRFSGVPDRFSGSGSGTDFTLKISRVEAEDVGVYYCFQGSHVPWTFGGGTKVEIK | 4.69
AHF16565 (antibody, V domains shown) VH: QVQLVQSGAEVKKPGASVKVSCKASGYTFTGYWMHWVRQAPGQGLEWIGMIHPNSDTTVYNWKFKNRVTMTRDTSISTAYMELSRLRSDDTAVYYCAGTDQEAWHGFWGQGTTVTVSS VL: DIVMTQTPLSLSVTPGQPASISCRSSQNIVRSQGDTYLEWYLQKPGQSPQLLIYKVSKRFSGVPDRFSGSGSGTDFTLKISRVEAEDVGVYYCFQGSHVPWTFGGGTKVEIK | 3.45
AHF16558 (antibody, V domains shown) VH: QVQLVQSGAEVKKPGASVKVSCKASGYTFTGYWMHWVRQAPGQGLEWIGMIHPNSDTTTYNEKFKNRVTMTRDTSISTAYMELSRLRSDDTAVYYCAGTDQEAWHAFWGQGTTVTVSS VL: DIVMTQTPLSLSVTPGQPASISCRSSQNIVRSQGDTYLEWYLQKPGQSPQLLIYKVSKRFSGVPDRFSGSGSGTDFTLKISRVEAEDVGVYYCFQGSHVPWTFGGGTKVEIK | 5.29
AHF16561 (antibody, V domains shown) VH: QVQLVQSGAEVKKPGASVKVSCKASGYTFTGYWMHWVRQAPGQGLEWIGMIHPNSDTTIYNEKFKNRVTMTRDTSISTAYMELSRLRSDDTAVYYCAGTDQAAWAGFWGQGTTVTVSS VL: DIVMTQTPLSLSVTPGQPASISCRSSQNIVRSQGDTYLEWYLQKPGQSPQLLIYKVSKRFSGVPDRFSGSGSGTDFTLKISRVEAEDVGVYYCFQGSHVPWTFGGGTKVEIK | 7.36
AHF16559 (antibody, V domains shown) VH: QVQLVQSGAEVKKPGASVKVSCKASGYTFTGYWMHWVRQAPGQGLEWIGMIHPNSDTTVYNEKFKNRVTMTRDTSISTAYMELSRLRSDDTAVYYCAGTDQAAWHAFWGQGTTVTVSS VL: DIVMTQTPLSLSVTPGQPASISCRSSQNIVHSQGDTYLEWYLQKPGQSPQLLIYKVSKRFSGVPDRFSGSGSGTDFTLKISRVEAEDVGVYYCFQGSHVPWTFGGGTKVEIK | 5.34
AHF16566 (antibody, V domains shown) VH: QVQLVQSGAEVKKPGASVKVSCKASGYTFTGYWMHWVRQAPGQGLEWIGMIHPNSDTTVYNWKFKNRVTMTRDTSISTAYMELSRLRSDDTAVYYCAGTDQAAWAAFWGQGTTVTVSS VL: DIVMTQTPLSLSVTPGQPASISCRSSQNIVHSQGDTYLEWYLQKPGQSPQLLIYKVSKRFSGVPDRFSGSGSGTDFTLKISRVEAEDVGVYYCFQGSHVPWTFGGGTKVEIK | 5.41
AHF16569 (antibody, V domains shown) VH: QVQLVQSGAEVKKPGASVKVSCKASGYTFTGYWMHWVRQAPGQGLEWIGMIHPNSDTTIYNWKFKNRVTMTRDTSISTAYMELSRLRSDDTAVYYCAGTDQEAWAAFWGQGTTVTVSS VL: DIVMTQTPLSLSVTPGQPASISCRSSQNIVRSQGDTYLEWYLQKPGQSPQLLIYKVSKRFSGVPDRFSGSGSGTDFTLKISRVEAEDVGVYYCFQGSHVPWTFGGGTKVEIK | 6.04
AHF16570 (antibody, V domains shown) VH: QVQLVQSGAEVKKPGASVKVSCKASGYTFTGYWMHWVRQAPGQGLEWIGMIHPNSDTTIYNWKFKNRVTMTRDTSISTAYMELSRLRSDDTAVYYCAGTDQAAWAGFWGQGTTVTVSS VL: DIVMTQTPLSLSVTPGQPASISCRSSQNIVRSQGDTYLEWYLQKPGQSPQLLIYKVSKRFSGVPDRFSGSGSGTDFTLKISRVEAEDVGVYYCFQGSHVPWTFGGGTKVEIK | 12.4
AHF16563 (antibody, V domains shown) VH: QVQLVQSGAEVKKPGASVKVSCKASGYTFTGYWMHWVRQAPGQGLEWIGMIHPNSDTTVYNWKFKNRVTMTRDTSISTAYMELSRLRSDDTAVYYCAGTDQEAWMGFWGQGTTVTVSS VL: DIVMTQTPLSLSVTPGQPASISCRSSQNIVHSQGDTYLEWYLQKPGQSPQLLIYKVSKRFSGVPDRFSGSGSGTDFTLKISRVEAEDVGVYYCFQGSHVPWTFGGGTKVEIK | 11.3

Next:
// AHF16564 (antibody, V domains shown) VH: QVQLVQSGAEVKKPGASVKVSCKASGYTFTGYWMHWVRQAPGQGLEWIGMIHPNSDTTTYNEKFKNRVTMTRDTSISTAYMELSRLRSDDTAVYYCAGTDQEAWAGFWGQGTTVTVSS VL: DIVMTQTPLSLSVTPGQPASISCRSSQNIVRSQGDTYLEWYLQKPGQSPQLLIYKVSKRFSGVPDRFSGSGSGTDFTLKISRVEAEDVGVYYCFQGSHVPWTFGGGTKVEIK : Ratio (kd) value = 11.1

The reported numbers originate from patent US20240034796A1.
